- ASSAY PROTOCOL: Potentiation of paclitaxel-induced cytotoxicity against human LCC6 cells at 200 nM after 72 hrs by SRB assay relative to control
- Assay type: functional
PARAMETER MEASURED: fold change (FC)
I only need the number, thanks.

| MOLECULE | fold change (FC) |
| --- | --- |
| COc1cc2c(cc1OC)CN(CCc1ccc(NC(=O)c3ccccc3NC(=O)c3cnc4ccccc4c3)cc1)CC2 | 0.9 |
| COc1cc2c(cc1OC)CN(CCc1ccc(NC(=O)c3ccccc3NC(=O)c3ccco3)cc1)CC2 | 1.3 |
| COc1cc2c(cc1OC)CN(CCc1ccc(NC(=O)c3cc(OC)c(OC)cc3NS(=O)(=O)c3ccc(C(C)(C)C)cc3)cc1)CC2 | 1 |
| COc1cc2c(cc1OC)CN(CCc1ccc(NC(=O)c3ccccc3N(S(=O)(=O)c3ccc(Br)cc3)S(=O)(=O)c3ccc(Br)cc3)cc1)CC2 | 1.3 |
| COc1cc2c(cc1OC)CN(CCc1ccc(NC(=O)c3ccccc3NC(=O)/C=C/c3ccccc3)cc1)CC2 | 1.6 |
| COc1cc2c(cc1OC)CN(CCc1ccc(NC(=O)c3cc(OC)c(OC)cc3NC(=O)c3cnc4ccccc4c3)cc1)CC2 [TARIQUIDAR] | 1.1 |

Switching to the query record.
Input COc1cc2c(cc1OC)CN(CCc1ccc(NC(=O)c3ccccc3NC(=O)c3ccc(F)cc3[N+](=O)[O-])cc1)CC2 . Output fold change (FC): 1.1

meta.source: ChEMBL document CHEMBL3611986
